Listed binders paired with reported Kd
molecular target: T1, Rhesus serum albumin (Rhesus, UniProt Q28522 17-600, limits assumed); assay: SPR
T1 construct: Bought from Sigma (A4297)
T1 sequence (Q28522 17-600 limits assumed): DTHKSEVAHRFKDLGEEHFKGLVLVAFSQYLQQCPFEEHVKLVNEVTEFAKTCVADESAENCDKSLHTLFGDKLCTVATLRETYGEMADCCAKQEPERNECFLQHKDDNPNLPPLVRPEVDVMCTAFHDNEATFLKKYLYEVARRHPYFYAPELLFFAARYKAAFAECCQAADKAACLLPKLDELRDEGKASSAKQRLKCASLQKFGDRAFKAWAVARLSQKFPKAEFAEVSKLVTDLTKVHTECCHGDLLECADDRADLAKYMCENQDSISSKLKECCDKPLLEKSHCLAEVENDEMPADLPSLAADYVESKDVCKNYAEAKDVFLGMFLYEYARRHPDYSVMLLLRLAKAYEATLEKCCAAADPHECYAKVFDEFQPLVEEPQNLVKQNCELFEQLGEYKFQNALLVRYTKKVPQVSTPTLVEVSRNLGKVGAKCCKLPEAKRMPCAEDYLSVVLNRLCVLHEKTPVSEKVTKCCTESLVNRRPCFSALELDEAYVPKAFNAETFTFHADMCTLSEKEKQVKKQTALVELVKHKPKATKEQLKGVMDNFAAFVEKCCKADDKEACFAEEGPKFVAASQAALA
Ends that are not written are not given here.
Give just the number in nM; leave the unit off.

Kindly indicate its recorded Kd. Item: LKEAKEKAIEELKKAGITSDYSFDLINKAKTVEGVNALKDEILKA (designed binder, not fully specified, Expressed and purified as described for ABDCon; also called ABDCon Y22S; not shown: N-terminal 8-His tag as for ABDCon) [ABDCon5]
104

Kindly indicate its recorded Kd. Item: LKEAKEKAIEELKKAGITSDKYFDLINKAKTVEGVNALKDEILKA (designed binder, not fully specified, Expressed and purified as described for ABDCon; also called ABDCon Y21K; not shown: N-terminal 8-His tag as for ABDCon) [ABDCon3]
5.1

Kindly indicate its recorded Kd. Item: LKEAKEKAIEELKKAGITSDYAFDLINKAKTVEGVNALKDEILKA (designed binder, not fully specified, Expressed and purified as described for ABDCon; also called ABDCon Y22A; not shown: N-terminal 8-His tag as for ABDCon) [ABDCon4]
43.7

Kindly indicate its recorded Kd. Item: LKEAKEKAIEELKKAGITSDYVFDLINKAKTVEGVNALKDEILKA (designed binder, not fully specified, Expressed and purified as described for ABDCon; also called ABDCon Y22V; not shown: N-terminal 8-His tag as for ABDCon) [ABDCon6]
8.4

Further cases:
Kindly indicate its recorded Kd. Item: LKEAKEKAIEELKKAGITSDYYFDLINKADTVEGVNALKDEILKA (designed binder, not fully specified, Expressed and purified as described for ABDCon; also called ABDCon K30D; not shown: N-terminal 8-His tag as for ABDCon) [ABDCon8]
65
